Recorded %Inh by entry
Test system: WNK3
Assay Context: concentration: 1 μM, replicates: in singlicate; n = 1;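 also: KINOMEscan kinase panel screen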
// return numeric value only (unit: %, not printed)

INSERT INTO results (compound, readout_number) VALUES
  ('O=C(Nc1n[nH]c2nc(-c3cccc(O)c3)ccc12)C1CC1', 0);

According to the records, this compound CS(=O)(=O)c1cccc(CNc2nc(Nc3ccc4c(c3)CCC(=O)N4)ncc2C(F)(F)F)c1 displays %Inh of 0

According to the records, this compound CC(=O)Nc1cn2nc(Oc3cccc(NC(=O)c4cccc(C(F)(F)F)c4)c3)ccc2n1 displays %Inh of 0

According to the records, this compound CN(C)c1ncnc2nc[nH]c12 displays %Inh of 10

According to the records, this compound CN(c1ccc(NC(=O)N2CCN(CCCN3CCOCC3)CC2)cc1)c1ccnc(Nc2ccc(CS(C)(=O)=O)cc2)n1.Cl displays %Inh of 0

According to the records, this compound Cc1cc(-c2c(-c3ccc(F)cc3)ncn2CCCN2CCOCC2)nc(N)n1 displays %Inh of 0

According to the records, this compound Cl.Cl.NCC(NC(=O)c1cc(-c2cccnc2)c(-c2ccnc3[nH]ccc23)s1)c1ccccc1 (centres unmarked) displays %Inh of 80

According to the records, this compound NCCC(NC(=O)c1cc(Br)c(-c2ccnc3[nH]ccc23)s1)c1ccccc1.O=C(O)C(F)(F)F.O=C(O)C(F)(F)F (centres unmarked) displays %Inh of 24

====

Test system: ACVRL1
Assay Context: concentration: 1 μM, replicates: in singlicate; n = 1
Readout Label: %Inh (%)
// return numeric value only (unit: %, not printed)

Past entries and their recorded results:
INSERT INTO assay_data (molecule, readout_number) VALUES
  ('Cc1ccccc1CC(=O)N1CCc2cc(-c3cn(C)c4ncnc(N)c34)ccc21', 11),
  ('Cl.O=C(Nc1ccc(Oc2ccc3[nH]c(NC(=O)c4ccco4)nc3c2)cc1)Nc1cc(C(F)(F)F)ccc1F', 0),
  ('COc1cccc(-c2nc(-c3ccccc3)[nH]c2-c2ccncc2)c1', 2),
  ('Cc1ccc(-c2ccc3occ(-c4ccc(S(C)=O)cc4)c3c2)nn1 (centres unmarked)', 20),
  ('COc1cccc(CC(=O)N2CCc3cc(-c4cn(C)c5ncnc(N)c45)ccc32)c1', 19),
  ('Cl.N#CCc1ccc(Nc2nccc(Nc3ccc(Oc4ccccc4)cc3)n2)cc1', 0);

According to the records, this molecule COc1cccc(C2=C(Nc3cccc(O)c3)C(=O)NC2=O)c1 displays %Inh of 0

According to the records, this molecule Cn1cc(-c2cnc(N)c3c(-c4ccc5c(c4)CCN5C(=O)Cc4ccccc4)csc23)cn1 displays %Inh of 0

====

Recorded %Inh by entry
System: CDK5
Assay Context: concentration: 1 μM, replicates: in singlicate; n = 1
// return numeric value only (unit: %, not printed)

Past entries and their recorded results:
INSERT INTO measurements (molecule, assay_system, readout_label, unit_abbrev, readout_number) VALUES
  ('COc1ccc(C)c(Nc2ccnc(Nc3ccc(-c4cnc[nH]4)cc3)n2)c1.Cl [GW784041]', 'CDK5', '%Inh', '%', 0),
  ('Cc1cccc(Nc2nc(NCCN)ncc2C(N)=O)c1 [GSK1292139]', 'CDK5', '%Inh', '%', 0),
  ('O=C1NC(=O)C(c2ccccc2Cl)=C1Nc1cccc(Cl)c1 [SB-342409]', 'CDK5', '%Inh', '%', 0),
  ('CSc1ccc(NC2=C(c3ccc(Cl)cc3)C(=O)NC2=O)cc1 [SB-317658]', 'CDK5', '%Inh', '%', 28),
  ('CC(C)NCC(Cc1ccccc1)NC(=O)c1cc(Br)c(-c2ccnc3[nH]ccc23)s1.Cl.Cl (stereo not drawn) [GSK1383281]', 'CDK5', '%Inh', '%', 0);

According to the records, this molecule COC(=O)Nc1nc2ccc(Oc3ccc(NC(=O)Nc4cc(C(F)(F)F)ccc4F)cc3)cc2[nH]1.Cl [GW654607] displays %Inh of 17

According to the records, this molecule c1ccc(Oc2ccc(Nc3ccnc4cc(-c5ccc(CN6CCCCC6)o5)ccc34)cc2)nc1 [GW567143] displays %Inh of 0

According to the records, this molecule CNc1nccc(-c2ccc3c(N)n[nH]c3c2)n1 [GSK2206003] displays %Inh of 0

According to the records, this molecule COc1cccc(CC(=O)N2CCc3cc(-c4cn(C)c5ncnc(N)c45)ccc32)c1 [GSK2608899] displays %Inh of 6

Values compiled from paper PMC5540273.
